Measured values drawn from paper PMC10410440 for this set.

# method-notes: Tissue distribution of SHR9146 in mice after oral gavage of 40 mg/kg
# Assay type: in vivo, ICR mice
# condition-context: female, ICR, mouse, kidney, po, 40 mg/kg, female, 1 h, 40 mg/kg oral gavage, Mean (n=3); read-out: SHR9146 concentration in Kidney
recorded-endpoint: concentration at 1 h (ng/g)

{"smiles-structure": "OCCn1cc(-c2ccc(N3CCC([C@H]4c5c(F)cccc5-c5cncn54)CC3)cc2)cn1", "recorded-endpoint": "concentration at 1 h", "obs-value": 15300}

###

# method-notes: Tissue distribution of SHR9146 in mice after oral gavage of 40 mg/kg
# Type: in vivo, ICR mice
# condition-context: male, ICR, mouse, testis, po, 40 mg/kg, male, 1 h, 40 mg/kg oral gavage, individual mice; read-out: SHR9146 concentration in Testis
recorded-endpoint: concentration at 1 h (ng/g)

{"compound": "OCCn1cc(-c2ccc(N3CCC([C@H]4c5c(F)cccc5-c5cncn54)CC3)cc2)cn1 [SHR9146]", "recorded-endpoint": "concentration at 1 h", "obs-value": 4160}

###

# method-notes: Tissue distribution of SHR9146 in mice after oral gavage of 40 mg/kg
# Assay type: in vivo, ICR mice
# condition-context: male, ICR, mouse, whole blood, po, 40 mg/kg, male, 6 h, 40 mg/kg oral gavage, Mean (n=3); read-out: SHR9146 concentration in Whole blood

{"smiles-structure": "OCCn1cc(-c2ccc(N3CCC([C@H]4c5c(F)cccc5-c5cncn54)CC3)cc2)cn1", "unit-abbreviation": "ng/mL", "concentration at 6 h": 22}

###

# method-notes: Plasma pharmacokinetics of SHR9146 in mice (LC-MS/MS, non-compartmental analysis)
# Type: in vivo, ICR mice
# condition-context: both sexes, ICR, mouse, plasma, oral, 40 mg/kg, 40 mg/kg i.g. single; 2 h; read-out: plasma drug concentration, mean (n=6)
recorded-endpoint: concentration at 2 h (ng/mL)

{"smiles-structure": "OCCn1cc(-c2ccc(N3CCC([C@H]4c5c(F)cccc5-c5cncn54)CC3)cc2)cn1", "obs-value": 4920}

###

# method-notes: Plasma pharmacokinetics of SHR9146 in mice (LC-MS/MS, non-compartmental analysis)
# Type: in vivo, ICR mice
# condition-context: both sexes, ICR, mouse, plasma, oral, 40 mg/kg, 40 mg/kg i.g. single; 10 h; read-out: plasma drug concentration, individual mice #1-#6
# Protocol: ICR mice with body weight 16–26 g were supplied by Shanghai Lingchang Biotechnology Co., Ltd. (animal breeding license number SCXK (Shanghai) 2013-0018) and housed at Shanghai Institute of Materia Medica, Chinese Academy of Sciences [animal use license number SYXK (Shanghai) 2015-0027]. The mice used in this study were fasted overnight for 12 h but had free access to water. Food was supplied 4 h post-dose. […]

{"smiles-structure": "OCCn1cc(-c2ccc(N3CCC([C@H]4c5c(F)cccc5-c5cncn54)CC3)cc2)cn1", "unit-abbreviation": "ng/mL", "concentration at 10 h": 293}

###

# method-notes: Plasma pharmacokinetics of SHR9146 in mice (LC-MS/MS, non-compartmental analysis)
# Assay type: in vivo, ICR mice
# condition-context: female, ICR, mouse, plasma, iv, 5 mg/kg, 5 mg/kg i.v. single dose; female mice
recorded-endpoint: AUC(0-inf) (ng·h/mL)

{"smiles-structure": "OCCn1cc(-c2ccc(N3CCC([C@H]4c5c(F)cccc5-c5cncn54)CC3)cc2)cn1", "obs-value": 6910}
